For each record, write down the corresponding LD50.
Assay Overview: LD50 (mice)
Assay Conditions: mouse, in vivo

Q) Could you share which LD50 value was measured for Clc1ccc(C=C(Cn2ccnc2)c2ccc(Cl)cc2)cc1 ?
A) ~1000 mg/kg

Q) Please give the measured LD50 for this compound: Clc1ccc(C=C(Cn2ccnc2)c2ccc(Cl)cc2Cl)cc1
A) ~2000 mg/kg

Q) For Clc1ccc(C=C(Cn2ccnc2)c2ccc(Cl)cc2Cl)c(Cl)c1 , what is its reported LD50?
A) ~2000 mg/kg

Q) Tell me the measured LD50 of Clc1ccc(C(=Cc2ccccc2)Cn2ccnc2)cc1 , please.
A) ~1000 mg/kg

Q) What value of LD50 has been reported for the following compound? Clc1ccc(C=C(Cn2ccnc2)c2ccccc2)c(Cl)c1
A) ~1000 mg/kg

Q) # get_value(readout='LD50', item= Clc1ccc(C(=Cc2ccc(Cl)cc2Cl)Cn2ccnc2)cc1 )
A) ~1000 mg/kg

Q) Record request: LD50 value, item Clc1ccc(C(=Cc2ccc(Br)cc2)Cn2ccnc2)c(Cl)c1
A) ~1000 mg/kg
